# subject of test: Protein deacetylase HDAC6 (Homo sapiens, UniProt Q9UBN7)
# Sequence (Q9UBN7 whole entry): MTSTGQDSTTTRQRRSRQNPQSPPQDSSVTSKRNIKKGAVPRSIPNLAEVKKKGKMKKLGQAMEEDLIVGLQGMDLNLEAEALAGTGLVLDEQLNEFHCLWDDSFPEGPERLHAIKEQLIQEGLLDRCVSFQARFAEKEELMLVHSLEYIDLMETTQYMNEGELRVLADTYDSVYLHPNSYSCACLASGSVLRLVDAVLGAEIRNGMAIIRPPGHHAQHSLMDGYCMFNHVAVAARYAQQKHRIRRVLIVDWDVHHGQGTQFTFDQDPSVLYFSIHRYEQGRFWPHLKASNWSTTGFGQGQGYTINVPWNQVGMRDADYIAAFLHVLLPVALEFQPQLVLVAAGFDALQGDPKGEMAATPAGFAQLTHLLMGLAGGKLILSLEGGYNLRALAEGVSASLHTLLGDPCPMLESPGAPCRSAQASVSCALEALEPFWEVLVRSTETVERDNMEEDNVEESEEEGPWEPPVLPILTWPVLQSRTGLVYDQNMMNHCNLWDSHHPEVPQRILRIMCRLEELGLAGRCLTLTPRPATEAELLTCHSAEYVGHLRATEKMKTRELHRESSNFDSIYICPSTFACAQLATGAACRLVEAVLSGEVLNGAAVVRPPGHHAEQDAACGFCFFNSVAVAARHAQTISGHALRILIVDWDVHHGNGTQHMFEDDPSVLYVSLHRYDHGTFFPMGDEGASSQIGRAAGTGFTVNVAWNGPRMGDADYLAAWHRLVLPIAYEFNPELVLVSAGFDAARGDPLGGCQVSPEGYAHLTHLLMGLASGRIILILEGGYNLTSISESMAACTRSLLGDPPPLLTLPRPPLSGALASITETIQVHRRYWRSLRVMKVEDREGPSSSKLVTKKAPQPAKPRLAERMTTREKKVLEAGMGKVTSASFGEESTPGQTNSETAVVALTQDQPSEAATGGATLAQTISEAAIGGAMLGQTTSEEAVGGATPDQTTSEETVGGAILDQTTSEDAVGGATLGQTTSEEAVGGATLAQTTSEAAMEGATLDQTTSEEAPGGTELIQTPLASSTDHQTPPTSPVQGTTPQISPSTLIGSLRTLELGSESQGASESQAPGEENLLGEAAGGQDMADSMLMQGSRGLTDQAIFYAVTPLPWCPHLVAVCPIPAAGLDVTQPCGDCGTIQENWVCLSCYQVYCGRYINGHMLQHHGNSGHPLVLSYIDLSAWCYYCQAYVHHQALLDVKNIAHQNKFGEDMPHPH
# protocol text: In Vitro Enzymatic Assay: The assay principle is well known and all necessary reagents like enzymes, substrates, developer and reference compounds are commercially available. Stock solutions (10 mM in DMSO) of compounds were serially diluted 1:3 in 11 concentrations with a top concentration of 200 μM for HDAC1,2,3 and 2 μM for HDAC6 and HDAC8. The enzymatic reactions were conducted in a mixture containing assay buffer, bovine serum albumin, HDAC substrate, and a test compound. After enzymatic reaction, developer was added and after an additional incubation time, fluorescence intensity was measured at an excitation wavelength of 360 nm and an emission wavelength of 460 nm. All experiments were performed in duplicate.
endpoint: IC50 (nM)
# output: bare number, implied unit nM

Give Protein deacetylase HDAC6 (Homo sapiens, UniProt Q9UBN7) IC50 for Cn1cc(CNCC2CCN(c3nc4cc(C(=O)NO)ccc4o3)CC2)c2ccccc21 41

All values here come from ChEMBL document CHEMBL5727703.
